B1: CD69 (parent)
chain: FVAENSSLHPESGQENDATSPHFS

# Variants of: B1
# measurement-description: protein stability index of a GFP-peptide fusion (GPS, HEK-293T) (PSI 1-6); higher = more stable;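 note: lentivirally expressed fusions sorted by FACS into six bins by GFP to DsRed ratio, PSI derived from sequencing read proportions per bin multiplied by bin number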
# particulars: c terminus: a fixed tail appended
Label class 0 if protein stability index falls below 3; label class 1 in every other case.

Illustrative cases are given below, each with its answer.
| variant-descriptor | class-name |
| --- | --- |
| H9T | class 1 |
| P10R | class 0 |
| S24R | class 0 |
| G13F | class 0 |
| N5M | class 0 |

Can P10V be said to have protein stability index at or above 3?
class 1

Can N5K be said to have protein stability index at or above 3?
class 0

Can A18L be said to have protein stability index at or above 3?
class 0
